Target: Adrenergic receptor alpha-2 (Rattus norvegicus, UniProt P22086+P19328+P22909)
Sequence (P22086 whole entry): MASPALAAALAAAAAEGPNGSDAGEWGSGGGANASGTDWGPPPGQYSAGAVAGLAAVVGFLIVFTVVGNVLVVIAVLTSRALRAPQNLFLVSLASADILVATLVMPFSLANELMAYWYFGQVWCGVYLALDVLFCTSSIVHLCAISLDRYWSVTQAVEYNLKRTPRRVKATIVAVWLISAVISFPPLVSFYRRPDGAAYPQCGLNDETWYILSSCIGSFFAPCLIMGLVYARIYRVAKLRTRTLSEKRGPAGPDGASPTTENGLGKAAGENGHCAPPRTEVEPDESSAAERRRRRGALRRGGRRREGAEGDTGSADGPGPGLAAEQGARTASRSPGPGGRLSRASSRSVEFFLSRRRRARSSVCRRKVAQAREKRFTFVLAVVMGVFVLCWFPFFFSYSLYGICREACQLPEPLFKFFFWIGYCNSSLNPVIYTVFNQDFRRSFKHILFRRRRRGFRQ
Sequence (P19328 whole entry): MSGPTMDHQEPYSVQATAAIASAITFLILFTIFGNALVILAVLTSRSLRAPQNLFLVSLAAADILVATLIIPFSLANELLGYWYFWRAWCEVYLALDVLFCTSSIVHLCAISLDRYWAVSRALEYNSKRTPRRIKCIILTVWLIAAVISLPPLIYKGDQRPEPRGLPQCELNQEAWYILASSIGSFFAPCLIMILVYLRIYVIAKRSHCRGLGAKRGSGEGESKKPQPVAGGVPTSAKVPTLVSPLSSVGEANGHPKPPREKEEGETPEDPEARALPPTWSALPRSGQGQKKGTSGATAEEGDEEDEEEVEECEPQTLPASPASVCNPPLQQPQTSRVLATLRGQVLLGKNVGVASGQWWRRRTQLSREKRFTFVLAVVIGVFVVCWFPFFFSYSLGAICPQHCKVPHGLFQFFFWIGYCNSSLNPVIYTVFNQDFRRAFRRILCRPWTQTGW
Sequence (P22909 whole entry): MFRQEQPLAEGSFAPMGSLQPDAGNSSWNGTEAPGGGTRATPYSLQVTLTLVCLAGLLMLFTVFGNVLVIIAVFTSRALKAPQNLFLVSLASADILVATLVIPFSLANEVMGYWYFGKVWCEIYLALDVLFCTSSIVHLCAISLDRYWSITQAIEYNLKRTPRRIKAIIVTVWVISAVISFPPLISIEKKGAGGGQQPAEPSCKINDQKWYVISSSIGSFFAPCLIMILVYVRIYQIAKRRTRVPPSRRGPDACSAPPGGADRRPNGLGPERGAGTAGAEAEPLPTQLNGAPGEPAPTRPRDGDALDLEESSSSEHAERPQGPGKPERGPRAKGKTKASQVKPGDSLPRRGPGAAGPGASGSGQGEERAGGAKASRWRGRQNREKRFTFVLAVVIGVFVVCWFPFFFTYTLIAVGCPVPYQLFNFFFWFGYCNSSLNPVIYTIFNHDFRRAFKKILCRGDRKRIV
Test: Inhibitory concentration against Alpha-2 adrenergic receptor
Type: protein assay
Overview of reported IC50 across a group of compounds:

# cpdSmiles, IC50
records = [
    ("COc1cc2nc(N3CCN(OCc4ccccc4)CC3)nc(N)c2cc1OC", "> 1000 nM"),
    ("COc1cc2nc(N3CCN(C(C)=O)CC3)nc(NC(C)=O)c2cc1OC", "> 1000 nM"),
    ("COc1cc2nc(N3CCC(c4ccccc4)(c4ccccc4)CC3)nc(N)c2cc1OC", "> 1000 nM"),
    ("COc1cc2nc(N(C)Cc3ccccc3)nc(N)c2cc1OC", "> 1000 nM"),
    ("COc1cc2nc(N3CCN(C(=O)C(C)(C)Oc4ccccc4OC)CC3)nc(N)c2cc1OC", "> 1000 nM"),
    ("COc1cc2c(cc1OC)CN(c1nc(N)c3cc(OC)c(OC)cc3n1)CC2", "> 1000 nM"),
    ("COc1cc2nc(N3CCc4ccccc4C3)nc(N)c2cc1OC", "> 1000 nM"),
    ("COc1cc2nc(N3CCN(C(=O)CC(c4ccccc4)c4ccccc4)CC3)nc(N)c2cc1OC", "> 1000 nM"),
    ("COc1cc2nc(N3CCN(C(=O)CC(=O)c4ccccc4)CC3)nc(N)c2cc1OC", "> 1000 nM"),
    ("COc1cc2nc(N(C)CCC(c3ccccc3)c3ccccc3)nc(N)c2cc1OC", "> 1000 nM"),
]
